target: CLR/RAMP2 receptor (UniProt Q16602 23-461; O60895 43-175, limits assumed); assay: cell-based or functional assay
Sequence (Q16602 23-461 limits assumed, chain 1 of 2): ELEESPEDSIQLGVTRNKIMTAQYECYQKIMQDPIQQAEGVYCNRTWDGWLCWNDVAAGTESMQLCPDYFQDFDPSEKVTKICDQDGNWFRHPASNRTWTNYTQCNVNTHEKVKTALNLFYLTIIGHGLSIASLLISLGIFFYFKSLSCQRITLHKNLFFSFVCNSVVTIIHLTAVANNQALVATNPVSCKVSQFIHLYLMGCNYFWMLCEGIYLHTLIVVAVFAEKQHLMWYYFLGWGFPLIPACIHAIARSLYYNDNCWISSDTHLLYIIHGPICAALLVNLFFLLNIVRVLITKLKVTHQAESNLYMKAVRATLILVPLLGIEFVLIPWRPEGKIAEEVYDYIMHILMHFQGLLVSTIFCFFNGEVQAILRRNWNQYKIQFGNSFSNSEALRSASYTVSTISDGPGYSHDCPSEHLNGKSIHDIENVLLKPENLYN
Sequence (O60895 43-175 limits assumed, chain 2 of 2): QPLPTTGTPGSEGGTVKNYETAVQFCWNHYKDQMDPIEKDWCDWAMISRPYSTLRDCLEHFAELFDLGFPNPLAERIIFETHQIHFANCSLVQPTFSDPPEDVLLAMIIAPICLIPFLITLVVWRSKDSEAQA
*: point of attachment. Palmitoyl = CCCCCCCCCCCCCCCC(=O)*
value-kind: EC50 (nM), CLR/RAMP2 arrestin assay
# answer = value followed by unit

Before answering, review these 5 worked examples.
>  <binder>
Ac-KGCRFGTCTVQKLAHQIYQFTDKDSAPVDPSSPHSY-NH2 (ends and bridges not checked) [SEQ ID NO: 93]

>  <EC50 (nM), CLR/RAMP2 arrestin assay>
17 nM

$$$$
>  <binder>
Palmitoyl-KCRFGTCTVQKLAHQIYQFTDKDKDNSAPVDPSSPHSY-NH2 (ends and bridges not checked) [SEQ ID NO: 44]

>  <EC50 (nM), CLR/RAMP2 arrestin assay>
0.2 nM

$$$$
>  <binder>
Palmitoyl-KGCRFGTCTVQKLAHQIYQFTDKDKQDSAPVDPSSPHSY-NH2 (ends and bridges not checked) [SEQ ID NO: 35]

>  <EC50 (nM), CLR/RAMP2 arrestin assay>
1 nM

$$$$
>  <binder>
Ac-TK(Palmitoyl)KTLRTGCRFGTCTVQKLAHQIYQFTDKDKDNSAPVDPSSPHSY-NH2 (ends and bridges not checked) [SEQ ID NO: 39]

>  <EC50 (nM), CLR/RAMP2 arrestin assay>
0.5 nM

$$$$
>  <binder>
Palmitoyl-KGCRFGTCTVQKLAHQIYQFTDKDKDNSAPVDPSSPHSY-NH2 (ends and bridges not checked) [SEQ ID NO: 30]

>  <EC50 (nM), CLR/RAMP2 arrestin assay>
0.6 nM

$$$$

Request: Entry Palmitoyl-KGCRFGTCTVQKLAHQIYQFTDKDVAPRSKISPQGY-NH2 (ends and bridges not checked) [SEQ ID NO: 103] needs its EC50 (nM), CLR/RAMP2 arrestin assay filled in; supply it.
Result: 0.7 nM

Request: Please report EC50 (nM), CLR/RAMP2 arrestin assay for the following binder: Ac-K(Palmitoyl)GCRFGTCTVQKLAHQIYQFTPAGRQDSAPVDPSSPHSY-NH2 (ends and bridges not checked) [SEQ ID NO: 33]
Result: 0.4 nM

Request: Give reported EC50 (nM), CLR/RAMP2 arrestin assay value for Palmitoyl-GCRFGTCTVQKLAHQIYQFTDKDKDNSAPVDPSSPHSY-NH2 (ends and bridges not checked) [SEQ ID NO: 45]
Result: 0.3 nM

Request: Indicate its recorded EC50 (nM), CLR/RAMP2 arrestin assay; the binder in question is KGCRFGTCTVQKLAHQIYQFTDKDKDNVAPRSKISPQGY (N-terminal palmitoyl (Pal); palmitoyl on Lys 1 side chain, K(Pal); C-terminal amide) [SEQ ID NO: 73]
Result: 49 nM

Request: Give the reported EC50 (nM), CLR/RAMP2 arrestin assay for this binder. Palmitoyl-KGCRFGTCTVQKLAHQIYQFTDKGRQDSAPVDPSSPHSY-NH2 (ends and bridges not checked) [SEQ ID NO: 36]
Result: 0.9 nM

Request: Indicate its recorded EC50 (nM), CLR/RAMP2 arrestin assay; the binder in question is Ac-VGCRFGTCTVQKLAHQIYQFTDKDKDNSAPVDPSSPHSY-NH2 (ends and bridges not checked) [SEQ ID NO: 56]
Result: 17 nM

Request: Name the recorded EC50 (nM), CLR/RAMP2 arrestin assay of the binder listed here: miniPEG-K(Palmitoyl)GCRFGTCTVQKLAHQIYQFTDKDSAPVDPSSPHSY-NH2 (ends and bridges not checked) [SEQ ID NO: 48]
Result: 0.2 nM

Request: Answer with the recorded EC50 (nM), CLR/RAMP2 arrestin assay for the binder listed here: miniPEG-K(Palmitoyl)GCRFGTCTVQKLAHQIYQFTDKDKSAPVDPSSPHSY-NH2 (ends and bridges not checked) [SEQ ID NO: 47]
Result: 0.4 nM

Request: Write down EC50 (nM), CLR/RAMP2 arrestin assay measured for item Ac-KGCRFGTCTVQKLAHQIYQFTDKDKDNSAPVDPSSPHSY-NH2 (ends and bridges not checked) [SEQ ID NO: 59]
Result: 18 nM

Request: Provide one value: measured EC50 (nM), CLR/RAMP2 arrestin assay of Ac-KGCRFGTCTVQKLAHQIYQFTDKDKDNVAPVDPSSPHSY-NH2 (ends and bridges not checked) [SEQ ID NO: 60]
Result: 3 nM

Request: # return recorded EC50 (nM), CLR/RAMP2 arrestin assay for input Palmitoyl-KGCRFGTCTVQKLAHQIYQFTDKDSAPVDPSSPHSY-NH2 (ends and bridges not checked) [SEQ ID NO: 92]
Result: 0.3 nM

Request: Identify measured EC50 (nM), CLR/RAMP2 arrestin assay associated with Ac-VGCRFGTCTVQKLAHQIYQFTPAGRQDSAPVDPSSPHSY-NH2 (ends and bridges not checked) [SEQ ID NO: 57]
Result: 149 nM

Request: Using the record for Palmitoyl-KGCRFGTCTVQKLAHQIYQFTDKDAPVDPSSPHSY-NH2 (ends and bridges not checked) [SEQ ID NO: 110] , state its measured EC50 (nM), CLR/RAMP2 arrestin assay.
Result: 6.4 nM
